Test system: ABCA1 protein
TEST_DESCRIPTION: Detection of upregulation of ABCA1 protein in THP-1 macrophage cells (ApoA-I binding, high content imaging)
Format: cell-based
CONDITION_PARAMETERS: 24 hrs with compound, AlexaFluor 647 ApoA-I binding, read-out: ABCA1 protein increasing efficacy EC50
MEASURED_QUANTITY: EC50 (nM)
The reply should be a number in nM, with the unit left off.

The compound listed as O=C(NCc1nc(C(F)(F)F)no1)c1cnc(OCC(F)(F)F)c(-c2ccc(F)c(Cl)c2)c1 [Example 81] shows EC50 equal to 890

The compound listed as Cc1ccc(-c2cc(C(=O)NCc3nc(C(F)(F)F)no3)cnc2OCC(F)(F)F)cc1 [Example 79] shows EC50 equal to 1170

The compound listed as O=C(NCc1nc(C(F)(F)F)no1)c1cnc(OCC(F)(F)F)c(-c2ccc(Cl)cc2)c1 [Example 15] shows EC50 equal to 840

The compound listed as C[C@H](Oc1ncc(C(=O)NCc2nc(C(F)(F)F)no2)cc1-c1ccc(Cl)cc1)C(F)(F)F [Example 38] shows EC50 equal to 950

====

EXPERIMENTAL_SYSTEM: human CB1 receptor (Homo sapiens)
Construct: expressed in transfected cells; host or cells: human embryonic kidney (HEK) cells, Semliki Forest Virus system, membrane preparations
Sequence (P21554 whole entry): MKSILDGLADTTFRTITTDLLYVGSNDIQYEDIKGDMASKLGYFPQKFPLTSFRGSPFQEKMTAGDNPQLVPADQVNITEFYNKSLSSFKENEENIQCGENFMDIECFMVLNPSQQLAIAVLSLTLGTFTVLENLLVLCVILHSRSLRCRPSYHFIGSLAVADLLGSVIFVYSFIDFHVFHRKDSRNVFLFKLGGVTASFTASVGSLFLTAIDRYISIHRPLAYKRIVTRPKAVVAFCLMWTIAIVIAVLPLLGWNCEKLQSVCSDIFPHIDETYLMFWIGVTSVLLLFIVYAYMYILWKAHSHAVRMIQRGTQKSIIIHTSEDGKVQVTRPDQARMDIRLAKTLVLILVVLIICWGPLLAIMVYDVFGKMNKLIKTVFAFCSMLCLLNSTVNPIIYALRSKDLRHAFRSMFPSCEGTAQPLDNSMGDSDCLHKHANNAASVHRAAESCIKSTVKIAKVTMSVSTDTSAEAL
TEST_DESCRIPTION: CB1 receptor affinity, [3H]-CP-55,940 displacement, HEK cell membranes
Assay type: binding
CONDITION_PARAMETERS: 10 μM compound, radioligand [3H]-CP-55,940; read-out: CB1 receptor affinity [% inhibition @ 10 μM]
MEASURED_QUANTITY: inhibition at 10 µM (%)
The reply should be a number in %, with the unit left off.

The molecule listed as CC(C)c1cc(CNC(=O)c2ncc(OCC(F)(F)F)c(-c3ccc(Cl)cc3)n2)on1 shows inhibition at 10 µM equal to 29

The molecule listed as Cc1cc(-c2cc(C(=O)NCc3csc(C4CC4)n3)cnc2OCC(F)(F)F)ccc1Cl shows inhibition at 10 µM equal to 2

The molecule listed as O=C(NCc1ccccn1)c1cnc(OC2CCC2)c(-c2ccc(Cl)cc2)c1 shows inhibition at 10 µM equal to 45

The molecule listed as CC(C)c1nc(CNC(=O)c2cnc(OCC3CC3)c(-c3ccc(Cl)cc3)c2)no1 shows inhibition at 10 µM equal to 47

The molecule listed as Cc1cc(CNC(=O)c2cc(-c3ccc(Cl)cc3)c(OCC(F)(F)F)cn2)no1 shows inhibition at 10 µM equal to 30

The molecule listed as O=C(NCc1nc(C(F)(F)F)no1)c1cnc(OCC(F)(F)F)c(-c2ccc(Cl)cc2F)c1 shows inhibition at 10 µM equal to 49

The molecule listed as O=C(NCc1cc(C2CC2)no1)c1ccc(OCC(F)(F)F)c(-c2ccc(Cl)cc2)n1 shows inhibition at 10 µM equal to 46

The molecule listed as O=C(NCc1cc(C(F)(F)F)no1)c1cc(-c2ccc(Cl)cc2)c(OCC(F)(F)F)nn1 shows inhibition at 10 µM equal to 30

====

I'd appreciate it if you could supply inhibition at 10 µM values for the items below.
EXPERIMENTAL_SYSTEM: human CB1 receptor (Homo sapiens)
Construct: expressed in transfected cells; host or cells: human embryonic kidney (HEK) cells, Semliki Forest Virus system, membrane preparations
TEST_DESCRIPTION: CB1 receptor affinity, [3H]-CP-55,940 displacement, HEK cell membranes
Format: binding
CONDITION_PARAMETERS: 10 μM compound, radioligand [3H]-CP-55,940; read-out: CB1 receptor affinity [% inhibition @ 10 μM]

Entry O=C(NCc1cc(C(F)(F)F)on1)c1cnc(OCC2CC2)c(-c2ccc(Cl)cc2)c1 , human CB1 receptor (Homo sapiens) data, inhibition at 10 µM value: 49%

Entry CC(C)c1nc(CNC(=O)c2cc(-c3ccc(Cl)cc3)c(OCC(F)(F)F)cn2)cs1 , human CB1 receptor (Homo sapiens) data, inhibition at 10 µM value: 5%

Entry CC(C)c1nc(CNC(=O)c2ccc(OCC3CC3)c(-c3ccc(Cl)cc3)n2)cs1 , human CB1 receptor (Homo sapiens) data, inhibition at 10 µM value: 38%

Entry CC(C)c1nc(CNC(=O)c2cc(-c3ccc(Cl)cc3)c(OCC(F)(F)F)cn2)no1 , human CB1 receptor (Homo sapiens) data, inhibition at 10 µM value: 26%

Entry COCCOc1ncc(C(=O)NCc2nc(C(F)(F)F)no2)cc1-c1ccc(Cl)c(C)c1 , human CB1 receptor (Homo sapiens) data, inhibition at 10 µM value: 41%

Entry O=C(NCc1cc(C(F)(F)F)no1)c1ncc(OCC2CC2)c(-c2ccc(Cl)cc2)n1 , human CB1 receptor (Homo sapiens) data, inhibition at 10 µM value: 44%

Entry COc1cc(CNC(=O)c2cnc(OCC(F)(F)F)c(-c3ccc(Cl)c(F)c3)c2)on1 , human CB1 receptor (Homo sapiens) data, inhibition at 10 µM value: 37%

Entry O=C(NCc1cc(C2CC2)no1)c1cc(-c2ccc(Cl)cc2)c(OCC(F)(F)F)nn1 , human CB1 receptor (Homo sapiens) data, inhibition at 10 µM value: 36%

Entry N#Cc1ccc(-c2cc(C(=O)NCc3nc(C(F)(F)F)no3)cnc2OCC(F)(F)F)cc1 , human CB1 receptor (Homo sapiens) data, inhibition at 10 µM value: 45%

Entry Cc1ccc(-c2cc(C(=O)NCc3nc(C(F)(F)F)no3)cnc2OCC(F)(F)F)cc1Cl , human CB1 receptor (Homo sapiens) data, inhibition at 10 µM value: 15%

Entry Cc1ccc(-c2cc(C(=O)NCc3nc(C(F)(F)F)no3)cnc2OCC(F)(F)F)cc1 , human CB1 receptor (Homo sapiens) data, inhibition at 10 µM value: 42%

Entry COc1cc(CNC(=O)c2cc(-c3ccc(Cl)cc3)c(OCC(F)(F)F)cn2)on1 , human CB1 receptor (Homo sapiens) data, inhibition at 10 µM value: 32%

Entry O=C(NCc1cc(C2CC2)on1)c1cnc(OCC2CC2)c(-c2ccc(Cl)cc2)c1 , human CB1 receptor (Homo sapiens) data, inhibition at 10 µM value: 48%

Entry O=C(NCc1nc(C(F)(F)F)no1)c1cnc(OC[C@@H]2CCOC2)c(-c2ccc(Cl)cc2)c1 (stereo in doubt) , human CB1 receptor (Homo sapiens) data, inhibition at 10 µM value: 47%

Entry Cc1cc(-c2cc(C(=O)NCc3csc(C4CC4)n3)ncc2OCC(F)(F)F)ccc1Cl , human CB1 receptor (Homo sapiens) data, inhibition at 10 µM value: 8%

Entry COc1cc(CNC(=O)c2cnc(OCC(F)(F)F)c(-c3ccc(Cl)cc3)c2)on1 , human CB1 receptor (Homo sapiens) data, inhibition at 10 µM value: 48%

Entry O=C(NCc1nc(C(F)(F)F)no1)c1ccc(OCC(F)(F)F)c(-c2ccc(Cl)cc2)n1 , human CB1 receptor (Homo sapiens) data, inhibition at 10 µM value: 40%

Entry O=C(NCc1nc(C(F)(F)F)no1)c1ncc(OCC(F)(F)F)c(-c2ccc(Cl)cc2)n1 , human CB1 receptor (Homo sapiens) data, inhibition at 10 µM value: 38%

Entry CC(C)(C)c1nc(CNC(=O)c2cc(-c3ccc(Cl)cc3)c(OCC3CC3)cn2)cs1 , human CB1 receptor (Homo sapiens) data, inhibition at 10 µM value: 20%

Entry CC(C)c1cc(CNC(=O)c2ccc(OCC3CC3)c(-c3ccc(Cl)cc3)n2)no1 , human CB1 receptor (Homo sapiens) data, inhibition at 10 µM value: 44%

Entry O=C(NCc1nc(C(F)(F)F)no1)c1cc(-c2ccc(Cl)cc2)c(OCC2CC2)nn1 , human CB1 receptor (Homo sapiens) data, inhibition at 10 µM value: 33%

Entry COc1cc(CNC(=O)c2cc(-c3ccc(C)c(C)c3)c(OCC(F)(F)F)cn2)on1 , human CB1 receptor (Homo sapiens) data, inhibition at 10 µM value: 19%

Entry CC(C)(C)c1nc(CNC(=O)c2ccc(OCC3CC3)c(-c3ccc(Cl)cc3)n2)cs1 , human CB1 receptor (Homo sapiens) data, inhibition at 10 µM value: 36%

Entry O=C(NCc1nc(C(F)(F)F)no1)c1cnc(OCC2CC2)c(-c2ccc(F)c(F)c2)c1 , human CB1 receptor (Homo sapiens) data, inhibition at 10 µM value: 39%

Entry C[C@H](Oc1cnc(C(=O)NCc2nc(C(F)(F)F)no2)nc1-c1ccc(Cl)cc1)C(F)(F)F , human CB1 receptor (Homo sapiens) data, inhibition at 10 µM value: 50%

Entry O=C(NCc1cc(C(F)(F)F)on1)c1cc(-c2ccc(Cl)cc2)c(OCC(F)(F)F)nn1 , human CB1 receptor (Homo sapiens) data, inhibition at 10 µM value: 25%

Entry O=C(NCc1ccn(CC2CC2)n1)c1cnc(OCC(F)(F)F)c(-c2ccc(Cl)cc2)c1 , human CB1 receptor (Homo sapiens) data, inhibition at 10 µM value: 48%

Entry CC(C)(C)c1nc(CNC(=O)c2cc(-c3ccc(Cl)cc3)c(OCC(F)(F)F)nn2)cs1 , human CB1 receptor (Homo sapiens) data, inhibition at 10 µM value: 18%

Entry CCCn1ccc(CNC(=O)c2cnc(OCC(F)(F)F)c(-c3ccc(Cl)cc3)c2)n1 , human CB1 receptor (Homo sapiens) data, inhibition at 10 µM value: 48%

Entry CC(C)c1cc(CNC(=O)c2cnc(OCC3CC3)c(-c3ccc(Cl)cc3)c2)no1 , human CB1 receptor (Homo sapiens) data, inhibition at 10 µM value: 47%

Entry COc1cc(CNC(=O)c2cnc(O[C@@H](C)C(F)(F)F)c(-c3ccc(Cl)cc3)c2)on1 , human CB1 receptor (Homo sapiens) data, inhibition at 10 µM value: 33%

Entry O=C(NCc1coc(C2CC2)n1)c1cc(-c2ccc(Cl)cc2)c(OCC(F)(F)F)cn1 , human CB1 receptor (Homo sapiens) data, inhibition at 10 µM value: 28%
